Values compiled from patent US20050107289A1.

Test system: S. aureus (MRSA) ATCC 33591
Format: cell-based, Staphylococcus aureus
Experimental context: ATCC 33591
Non-standard residues stand in square brackets, D forms with d. Residues, ends and D or L forms follow the SMILES beside them.
Observed property: S. aureus (MRSA) MIC

Ask | So what's the measured S. aureus (MRSA) MIC for this one? CC(C)C[C@@H]1NC(=O)[C@@H](Cc2c[nH]c3ccccc23)NC(=O)[C@H](Cc2c[nH]c3ccccc23)NC(=O)[C@@H](CCCNC(=N)N)NC(=O)[C@H](CCC(N)=O)NC(=O)[C@@H](CCCNC(=N)N)NC(=O)[C@H](Cc2c[nH]c3ccccc23)NC(=O)[C@@H](Cc2c[nH]c3ccccc23)NC1=O [SEQ ID NO:36, QRWWLWWR] (cyclo(Q[dR]W[dW]L[dW]W[dR]))
Reply | 2.5 to 3.8 µg/mL

Ask | So what's the measured S. aureus (MRSA) MIC for this one? CC(C)C[C@H]1NC(=O)[C@H](CCCCN)NC(=O)[C@@H](CCCCN)NC(=O)[C@H](Cc2c[nH]c3ccccc23)NC(=O)[C@@H](CC(C)C)NC(=O)[C@H](Cc2c[nH]c3ccccc23)NC1=O [SEQ ID NO:26, cyclo-(D-Lys-Lys-D-Leu-Trp-D-Leu-Trp)] (cyclo(K[dL]W[dL]W[dK]))
Reply | 10 µg/mL

Ask | So what's the measured S. aureus (MRSA) MIC for this one? CC(C)C[C@H]1NC(=O)[C@H](Cc2c[nH]c3ccccc23)NC(=O)[C@@H](CCCCN)NC(=O)[C@H](CO)NC(=O)[C@@H](CCCCN)NC(=O)[C@H](Cc2c[nH]c3ccccc23)NC(=O)[C@@H](CC(C)C)NC(=O)[C@H](Cc2c[nH]c3ccccc23)NC1=O [SEQ ID NO:12, D-Lys-Ser-D-Lys-Trp-D-Leu-Trp-D-Leu-Trp] (cyclo([dK]S[dK]W[dL]W[dL]W))
Reply | 5 µg/mL

====

Tested on: murine red blood cells
Assay info: Red blood cell hemolysis
Type: cell-based, mouse
Non-standard residues stand in square brackets, D forms with d. Residues, ends and D or L forms follow the SMILES beside them.
Quick reference for RBC Hemolysis (HD50) among some compounds
Number only, no unit.

Ask | So what's the measured RBC Hemolysis (HD50) for this one? CC(C)C[C@H]1NC(=O)[C@H](Cc2c[nH]c3ccccc23)NC(=O)[C@@H](CCCCN)NC(=O)[C@H](Cc2c[nH]cn2)NC(=O)[C@@H](CCCCN)NC(=O)[C@H](Cc2c[nH]c3ccccc23)NC(=O)[C@@H](CC(C)C)NC(=O)[C@H](Cc2c[nH]c3ccccc23)NC1=O [SEQ ID NO:22, KHKWLWLW] (cyclo([dK]H[dK]W[dL]W[dL]W))
Reply | 30

Ask | So what's the measured RBC Hemolysis (HD50) for this one? CC(C)C[C@@H]1NC(=O)[C@@H](Cc2c[nH]c3ccccc23)NC(=O)[C@H](CCCNC(=N)N)NC(=O)[C@@H](CCC(N)=O)NC(=O)[C@H](CCCCN)NC(=O)[C@@H](Cc2c[nH]c3ccccc23)NC(=O)[C@H](CC(C)C)NC(=O)[C@@H](Cc2c[nH]c3ccccc23)NC1=O [SEQ ID NO:9] (cyclo(K[dQ]R[dW]L[dW]L[dW]))
Reply | 40

Ask | So what's the measured RBC Hemolysis (HD50) for this one? CC(C)C[C@@H]1NC(=O)[C@@H](Cc2c[nH]c3ccccc23)NC(=O)[C@H](CO)NC(=O)[C@@H](Cc2c[nH]c3ccccc23)NC(=O)[C@H](CCCCN)NC(=O)[C@@H](Cc2c[nH]c3ccccc23)NC(=O)[C@H](CCCCN)NC(=O)[C@@H](Cc2c[nH]c3ccccc23)NC1=O [SEQ ID NO:107, [KWKWSWLW]] (cyclo(K[dW]K[dW]S[dW]L[dW]))
Reply | 150
